These data points were gathered from patent US12599672B2.

# DC50 per record follows
target: KRAS G12V (Homo sapiens, UniProt P01116, G12V); construct: SW620-KRAS (G12V)-HiBit-KI cell (Pharmaron); host or cells: SW620-KRAS (G12V)-HiBit-KI cells (HiBiT knock-in at the endogenous KRAS locus); experiment: KRAS G12V HiBit assay; assay type: cell-based; conditions: SW620-KRAS (G12V)-HiBit-KI cells, compound treatment for 24 hours, class symbols
Sequence (P01116 1-188 isoform P01116-2 G12V): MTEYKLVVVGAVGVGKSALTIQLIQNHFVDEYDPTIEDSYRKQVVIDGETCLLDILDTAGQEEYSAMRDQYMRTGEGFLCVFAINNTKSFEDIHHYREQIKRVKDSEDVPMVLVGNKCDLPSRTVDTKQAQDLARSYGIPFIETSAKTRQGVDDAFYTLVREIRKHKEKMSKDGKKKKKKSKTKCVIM

COMPOUND	DC50
C#Cc1c(F)ccc2cc(O)cc(-c3ncc4c(N5CCC[C@@](C)(O)C5)nc(OC[C@@]56CCCN5[C@H](COC(=O)N5CCC(CN7CCC(c8cccc9c8n(C)c(=O)n9C8CCC(=O)NC8=O)CC7)CC5)CC6)nc4c3F)c12 (stereo partly drawn) [Compound 133]	10 to 100 nM
CCc1c(F)ccc2cc(O)cc(-c3ncc4c(N5CC6(CCC6)C5)nc(OC[C@@]56CCCN5[C@H](COC(=O)N5CCC7(CC5)CC(N5CCC(c8ccc9c(c8)n(C)c(=O)n9C8CCC(=O)NC8=O)CC5)C7)CC6)nc4c3F)c12 (stereo partly drawn) [Compound 347]	> 100 nM
CCc1c(F)ccc2cc(O)cc(-c3ncc4c(N5CCC[C@@](C)(O)C5)nc(OC[C@@]56CCCN5[C@H](COC(=O)N5CCC7(CCC(CN8CCC(c9ccc%10c(c9)n(C)c(=O)n%10C9CCC(=O)NC9=O)CC8)CC7)C5)CC6)nc4c3F)c12 (stereo partly drawn) [Compound 457]	< 10 nM

Report DC50, nothing else, for this compound: CCc1c(F)ccc2cc(O)cc(-c3ncc4c(N5CCCOCC5)nc(OC[C@@]56CCCN5[C@H](COC(=O)N5CCC7(CC5)CC(N5CCC(c8ccc9c(c8)n(C)c(=O)n9C8CCC(=O)NC8=O)CC5)C7)CC6)nc4c3F)c12 (stereo partly drawn) [Compound 489] < 10 nM

Report DC50, nothing else, for this compound: C#Cc1c(F)ccc2cccc(-c3ncc4c(N5CCC[C@@](C)(O)C5)nc(OCC5(CN6CCC7(CC6)CN(c6ccc8c(c6)n(C)c(=O)n8C6CCC(=O)NC6=O)C7)CC5)nc4c3F)c12 (stereo partly drawn) [Compound 40] > 100 nM

Report DC50, nothing else, for this compound: C#Cc1c(F)ccc2cc(O)cc(-c3ncc4c(N5CCOCC5)nc(OC[C@@]56CCCN5[C@H](COC(=O)N5CCC(CN7CCC(c8ccc9c(c8)n(C)c(=O)n9C8CCC(=O)NC8=O)CC7)CC5)CC6)nc4c3F)c12 (stereo partly drawn) [Compound 125] < 10 nM

Report DC50, nothing else, for this compound: CCc1c(F)ccc2cc(O)cc(-c3ncc4c(N5CCC[C@@](C)(O)C5)nc(OC[C@@]56CCCN5[C@H](COC(=O)N5CCC7(CCC(CN8CCC(c9ccc%10c(c9)n(C)c(=O)n%10C9CCC(=O)NC9=O)CC8)CC7)CC5)CC6)nc4c3F)c12 (stereo partly drawn) [Compound 466] < 10 nM

Report DC50, nothing else, for this compound: C[C@H]1CN(CC(=O)N2CCC(CN3CCC(c4ccc5c(c4)n(C)c(=O)n5C4CCC(=O)NC4=O)CC3)CC2)CCCN1c1nccc(-c2noc([C@]3(C)CCCc4sc(N)c(C#N)c43)n2)n1 (stereo partly drawn) [Compound 211] > 100 nM

Report DC50, nothing else, for this compound: Cn1c(=O)n(C2CCC(=O)NC2=O)c2ccc(C3CCN(C4CC5(CCN(C(=O)OC[C@@H]6CC[C@]7(COc8nc(N9CCC[C@@](C)(O)C9)c9cnc(-c%10cc(O)cc%11ccc(F)cc%10%11)c(F)c9n8)CCCN67)CC5)C4)CC3)cc21 (stereo partly drawn) [Compound 438] < 10 nM

---

biological target: KRAS (Homo sapiens); construct: endogenous in cells; host or cells: KE39 (KRAS amplified) cells; experiment: KRASamp MSD assay; type: cell-based; settings: KE39 (KRAS amplified) cells, treated with test compounds for 24 hr, MSD readout of KRAS degradation
Sequence (P01116 1-188 isoform P01116-2): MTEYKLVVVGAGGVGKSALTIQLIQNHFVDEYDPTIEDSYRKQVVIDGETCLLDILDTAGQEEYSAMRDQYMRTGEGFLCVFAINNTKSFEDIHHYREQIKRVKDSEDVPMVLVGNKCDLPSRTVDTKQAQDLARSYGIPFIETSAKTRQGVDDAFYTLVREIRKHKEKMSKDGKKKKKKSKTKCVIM
MEASUREMENT_LABEL: DC50

Report DC50, nothing else, for this molecule: CCc1c(F)ccc2cc(O)cc(-c3ncc4c(N5CCC[C@@](C)(O)C5)nc(OC[C@]56CCCN5[C@H](COC(=O)N5CCC(CN7CCC(c8ccc9c(c8)n(C)c(=O)n9C8CCC(=O)NC8=O)CC7)CC5)CC6)nc4c3F)c12 (stereo partly shown) [Compound 390] 1 to 10 nM

Report DC50, nothing else, for this molecule: Cn1c(=O)n(C2CCC(=O)NC2=O)c2ccc(C3CCN(CC4(F)CCN(C(=O)OC[C@@H]5CC[C@]6(COc7nc(N8CCC[C@@](C)(O)C8)c8cnc(-c9cc(O)cc%10ccc(F)cc9%10)c(F)c8n7)CCCN56)CC4)CC3)cc21 (stereo partly shown) [Compound 446] < 1 nM

Report DC50, nothing else, for this molecule: C#Cc1c(F)ccc2cc(O)cc(-c3ncc4c(N5CCC[C@@](C)(O)C5)nc(OC[C@@]56CCCN5[C@H](COC(=O)N5CCC57CCN(C5CCN(c8ccc9c(c8)n(C)c(=O)n9C8CCC(=O)NC8=O)CC5)CC7)CC6)nc4c3F)c12 (stereo partly shown) [Compound 326] ≥ 10 nM

Report DC50, nothing else, for this molecule: C#Cc1c(F)ccc2cccc(-c3ncc4c(N5CCC[C@@](C)(O)C5)nc(OC[C@@]56CCCN5[C@H](COC(=O)N5CCC(CN7CCC(c8cccc9c8n(C)c(=O)n9C8CCC(=O)NC8=O)CC7)CC5)CC6)nc4c3F)c12 (stereo partly shown) [Compound 137] 1 to 10 nM

Report DC50, nothing else, for this molecule: Cn1c(=O)n(C2CCC(=O)NC2=O)c2ccc(N3CCC(CN4CCN(C(=O)OC[C@@H]5CC[C@]6(COc7nc(N8CCC[C@@](C)(O)C8)c8cnc(-c9cc(O)cc%10ccc(F)cc9%10)c(F)c8n7)CCCN56)CC4)CC3)cc21 (stereo partly shown) [Compound 445] < 1 nM

---

# DC50 per record follows
target: KRAS G12V (Homo sapiens, UniProt P01116, G12V); construct: SW620-KRAS (G12V)-HiBit-KI cell (Pharmaron); host or cells: SW620-KRAS (G12V)-HiBit-KI cells (HiBiT knock-in at the endogenous KRAS locus); test: KRAS G12V HiBit assay; format: cell-based; details: SW620-KRAS (G12V)-HiBit-KI cells, compound treatment for 24 hours, class symbols

MOLECULE	OBS_VALUE
CCc1c(F)ccc2cccc(-c3ncc4c(N5CCC[C@@](C)(O)C5)nc(OC[C@@]56CCCN5[C@H](COC(=O)NCCOCCOc5ccc7c(c5)n(C)c(=O)n7C5CCC(=O)NC5=O)CC6)nc4c3F)c12 (stereo partly drawn)	> 100 nM

Report DC50, nothing else, for this molecule: CCc1c(F)ccc2cc(O)cc(-c3ncc4c(N5CCC[C@@](C)(O)C5)nc(OC[C@@]56CCCN5[C@H](CNC(=O)c5ccc(CN7CCC(c8ccc9c(c8)n(C)c(=O)n9C8CCC(=O)NC8=O)CC7)cc5)CC6)nc4c3F)c12 (stereo partly drawn) 10 to 100 nM

Report DC50, nothing else, for this molecule: CCc1c(F)ccc2cc(O)cc(-c3ncc4c(N5CCC[C@@](C)(O)C5)nc(OC[C@@]56CCCN5[C@@H](COC(=O)N5CCC(CN7CCC(c8cc9c(cc8F)n(C8CCC(=O)NC8=O)c(=O)n9C)CC7)CC5)CC6)nc4c3F)c12 (stereo partly drawn) 10 to 100 nM

Report DC50, nothing else, for this molecule: CCc1c(F)ccc2cc(O)cc(-c3ncc4c(N5CCC[C@@](C)(O)C5)nc(OC[C@@]56CCCN5[C@H](COC(=O)N5CCC(C#CC7CCN(c8ccc9c(c8)n(C)c(=O)n9C8CCC(=O)NC8=O)CC7)CC5)CC6)nc4c3F)c12 (stereo partly drawn) < 10 nM

Report DC50, nothing else, for this molecule: C#Cc1c(F)ccc2cc(O)cc(-c3ncc4c(N5CCC[C@@](C)(O)C5)nc(OC[C@@]56CCCN5[C@H](COC(=O)N5CCC(N7CCC(c8ccc9c(c8)n(C)c(=O)n9C8CCC(=O)NC8=O)CC7)CC5)CC6)nc4c3F)c12 (stereo partly drawn) > 100 nM

Report DC50, nothing else, for this molecule: CCc1c(F)ccc2cc(O)cc(-c3ncc4c(N5CCC[C@H](CO)C5)nc(OC[C@@]56CCCN5[C@H](COC(=O)N5CCC(CN7CCC(c8ccc9c(c8)n(C)c(=O)n9C8CCC(=O)NC8=O)CC7)CC5)CC6)nc4c3F)c12 (stereo partly drawn) > 100 nM

---

biological target: KRAS G12V (Homo sapiens, UniProt P01116, G12V); construct: SW620-KRAS (G12V)-HiBit-KI cell (Pharmaron); host or cells: SW620-KRAS (G12V)-HiBit-KI cells (HiBiT knock-in at the endogenous KRAS locus); test: KRAS G12V HiBit assay; assay type: cell-based; details: SW620-KRAS (G12V)-HiBit-KI cells, compound treatment for 24 hours, class symbols
MEASUREMENT_LABEL: DC50

Consider the following illustrative entries.
COMPOUND	DC50
C#Cc1c(F)ccc2cc(O)cc(-c3ncc4c(N5CCC[C@@](C)(O)C5)nc(OCC5(CN6CCN(CC7CCN(c8ccc9c(c8)n(C)c(=O)n9C8CCC(=O)NC8=O)CC7)CC6)CC5)nc4c3F)c12 (stereo partly shown) [Compound 14]	< 10 nM
CCc1c(F)ccc2cc(O)cc(-c3ncc4c(N5CCC[C@@](C)(O)C5)nc(OC[C@@]56CCCN5[C@H](COC(=O)N5CCC(CN7CCC(Cc8ccc9c(c8)n(C)c(=O)n9C8CCC(=O)NC8=O)CC7)CC5)CC6)nc4c3F)c12 (stereo partly shown) [Compound 429]	< 10 nM
C#Cc1c(F)ccc2cc(O)cc(-c3ncc4c(N5CCC[C@@](C)(O)C5)nc(OC[C@@]56CCCN5[C@H](COC(=O)N5CCC7(CCC7N7CCC(c8ccc9c(c8)n(C)c(=O)n9C8CCC(=O)NC8=O)CC7)CC5)CC6)nc4c3F)c12 (stereo partly shown) [Compound 415]	> 100 nM

Report DC50, nothing else, for this compound: CCc1c(F)ccc2cc(O)cc(-c3ncc4c(N5CCC[C@@](C)(O)C5)nc(OC[C@@]56CCCN5[C@H](COC(=O)N5CCC(F)(CN7CCC(c8ccc9c(c8)n(C)c(=O)n9C8CCC(=O)NC8=O)CC7)CC5)CC6)nc4c3F)c12 (stereo partly shown) [Compound 156] < 10 nM
